test system: MCF7 breast; assay: NCI tumour cell line growth inhibition, 48 h
Assignment: determine reported TGI for the given compounds.

Some solved entries appear below for comparison.
COMPOUND: C[C@H]1O[C@@H](O[C@H]2[C@@H](O)C[C@H](O[C@H]3[C@@H](O)C[C@H](O[C@H]4CC[C@]5(C)C6CC[C@]7(C)[C@@H](C8=CC(=O)OC8)CC[C@]7(O)C6CC[C@@H]5C4)O[C@@H]3C)O[C@@H]2C)C[C@H](O)[C@@H]1O (some centres undefined)
TGI: 0.11 µM

COMPOUND: COc1ccc(CNCCN2C(=O)c3ccc4c5c(ccc(c35)C2=O)C(=O)N(CCNCc2ccc(OC)c(OC)c2OC)C4=O)c(OC)c1OC
TGI: 1.15 µM

COMPOUND: COc1cc(/C=C/[N+](=O)[O-])cc(OC)c1
TGI: 3.61 µM

COMPOUND: CCN(Cc1c(F)cccc1C(F)(F)F)c1ccc(CO)c(Cl)c1
TGI: 15.7 µM

COMPOUND: N/C(=N/O)NOCCC(N)C(=O)O (centres undefined)
TGI: > 100 µM

Hi team, please reply with TGI for each item in this list.
1. Cc1c(-c2c(F)cc(C(N)=O)c3[nH]c4c(c23)CC[C@H](C(C)(C)O)C4)cccc1-n1c(=O)c2cccc(F)c2n(C)c1=O
2. S=C1NC(c2ccccc2)NC(c2ccccc2)S1 (centres undefined)

Response:
1. > 100 µM
2. > 100 µM

Hi team, please reply with TGI for each item in this list.
1. O=C1C(Nc2ccc(S(=O)(=O)Nc3cnc4ccccc4n3)cc2)=CC(=Nc2ccc(S(=O)(=O)Nc3cnc4ccccc4n3)cc2)c2ccccc21
2. OC(CBr)C(O)C(O)C(O)CBr (centres undefined)
3. Cn1c(SCc2ccc([N+](=O)[O-])cc2)nnc1C12CC3CC(CC(C3)C1)C2

Response:
1. 42.4 µM
2. > 100 µM
3. > 10 µM

Hi team, please reply with TGI for each item in this list.
1. CCOC(=O)C1=C(C)NC(c2ccccc2)=C(C(=O)OCc2ccccc2)C1C#Cc1ccccc1 (centres undefined)
2. C=c1c2ccccc2oc2nc3[nH]c(N)c(C#N)c(N)c3c(=N)c12
3. c1ccc(C(OCCN2CC3CCC(C2)N3)c2ccccc2)cc1
4. O=S1(=O)OCCOS(=O)(=O)C1C1c2ccccc2-c2ccccc21
5. O=C(/C=C/c1cc2ccccc2[nH]c1=O)c1ccc(O)cc1
6. Cc1ccc2c(c1)n([O-])c(C(F)(F)F)c(C(=O)c1ccco1)[n+]2=O

Response:
1: > 100 µM; 2: > 100 µM; 3: > 100 µM; 4: > 100 µM; 5: 16.8 µM; 6: 4.9 µM

Hi team, please reply with TGI for each item in this list.
1. C=C1C(=O)OC2C=C(C)CC3C=C(CCC=C(C)CCC12)C(=O)O3 (centres undefined)
2. O=c1[nH]c(=O)n(C2C[C@@H](O)[C@@H](CO)O2)cc1F (some centres undefined)
3. CN1CN(c2ccccc2)C2(CCN(C(=O)OC(C)(C)C)CC2)C1=O

Response:
["106 µM", "> 100 µM", "> 100 µM"]
